System: Saccharomyces cerevisiae BY4741 SeMeCo community
protocol: z-score of subpopulation abundance vs DMSO median, subpopulation auxotrophic for HM; higher = larger share of this subpopulation than in DMSO controls
condition info: 10 µM; 24 h; SM minimal medium; subpopulation (auxotrophy): HM
Counter-ions that a name gives are not always drawn.
parameter measured: z-score of subpopulation abundance
Lab note: jot down the number only; don't add units.

C=C[C@H]1CN2CC[C@H]1C[C@H]2[C@H](O)c1ccnc2ccc(OC)cc12 [Quinine HCl Dihydrate]: -0.08
NC1CCN(c2nc3c(cc2F)c(=O)c(C(=O)O)cn3-c2ccc(F)cc2F)C1 (configuration not stated) [Tosufloxacin p-Toluenesulfonate Hydrate]: -0.46
OCCN1CCN(CCCN2c3ccccc3Sc3ccc(Cl)cc32)CC1: 0.07
C[C@@H]1O[C@@H]1P(=O)(O)O [Fosfomycin Disodium]: -0.52
CN(C)CCc1c[nH]c2ccc(CS(=O)(=O)N3CCCC3)cc12 [Almotriptan Malate]: -1.15

What value of z-score of subpopulation abundance has been reported for the following compound? `C=CC[C@@H]1/C=C(\C)C[C@H](C)C[C@H](OC)[C@H]2O[C@@](O)(C(=O)C(=O)N3CCCC[C@H]3C(=O)O[C@H](/C(C)=C/[C@@H]3CC[C@@H](O)[C@H](OC)C3)[C@H](C)[C@@H](O)CC1=O)[C@H](C)C[C@@H]2OC`
1.61

What value of z-score of subpopulation abundance has been reported for the following compound? NC(=O)N1c2ccccc2C=Cc2ccccc21 [Carbamazepine]
-0.61

What value of z-score of subpopulation abundance has been reported for the following compound? C#CCN(C)Cc1ccccc1 [Pargyline hydrochloride]
-0.95

What value of z-score of subpopulation abundance has been reported for the following compound? COc1cccc(CCc2ccccc2OCC(CN(C)C)OC(=O)CCC(=O)O)c1 (configuration not stated) [Sarpogrelate hydrochloride]
-0.54

What value of z-score of subpopulation abundance has been reported for the following compound? NC(=O)OCC(COC(N)=O)c1ccccc1 [Felbamate]
-1.32

What value of z-score of subpopulation abundance has been reported for the following compound? C[C@H]1COc2c(N3CCN(C)CC3)c(F)cc3c(=O)c(C(=O)O)cn1c23 [Levofloxacin]
-0.49

What value of z-score of subpopulation abundance has been reported for the following compound? CCCC1CC(C(=O)NC(C(C)Cl)C2OC(SC)C(O)C(O)C2O)N(C)C1 (configuration not stated) [Clindamycin alcoholate]
0.91

What value of z-score of subpopulation abundance has been reported for the following compound? `CC(C)(O/N=C(\C(=O)N[C@@H]1C(=O)N2C(C(=O)[O-])=C(C[n+]3ccccc3)CS[C@H]12)c1csc(N)n1)C(=O)O`
-0.26

What value of z-score of subpopulation abundance has been reported for the following compound? `OB1OCc2cc(F)ccc21`
27.5

What value of z-score of subpopulation abundance has been reported for the following compound? CN[C@@H]1[C@@H](O[C@H]2O[C@H](CO)[C@@H](N)[C@H](O)[C@H]2O)OC2C[C@@H](N)[C@@H](O[C@H]3[C@H](O)[C@@H](O)[C@H](N)C[C@@H]3N)OC2[C@@H]1O (some centres not stated) [Apramycin Sulfate]
0.03

What value of z-score of subpopulation abundance has been reported for the following compound? CC(N)C12CC3CC(CC(C3)C1)C2 (configuration not stated)
0.19

What value of z-score of subpopulation abundance has been reported for the following compound? Cc1ncc([N+](=O)[O-])n1CC(O)CCl (configuration not stated)
0.34

What value of z-score of subpopulation abundance has been reported for the following compound? CCCOc1ccc(C(=O)OCCN(CC)CC)cc1N [Proparacaine HCl]
-0.65

What value of z-score of subpopulation abundance has been reported for the following compound? Clc1ccc(COC(Cn2ccnc2)c2ccc(Cl)cc2Cl)cc1 (configuration not stated) [Econazole]
2.71

What value of z-score of subpopulation abundance has been reported for the following compound? COCCCN1CCC(NC(=O)c2cc(Cl)c(N)c3c2OCC3)CC1 [Prucalopride]
0.24
